src = paper PMC5706701

Form field: Raw Signal (one value per entry).
assay-system: Human IP6K1 (Homo sapiens, UniProt Q92551)
Construct: GST (N, cleaved yes); made in house; host or cells: C43 E. coli, pGEX-6P-2
Sequence (Q92551 whole entry): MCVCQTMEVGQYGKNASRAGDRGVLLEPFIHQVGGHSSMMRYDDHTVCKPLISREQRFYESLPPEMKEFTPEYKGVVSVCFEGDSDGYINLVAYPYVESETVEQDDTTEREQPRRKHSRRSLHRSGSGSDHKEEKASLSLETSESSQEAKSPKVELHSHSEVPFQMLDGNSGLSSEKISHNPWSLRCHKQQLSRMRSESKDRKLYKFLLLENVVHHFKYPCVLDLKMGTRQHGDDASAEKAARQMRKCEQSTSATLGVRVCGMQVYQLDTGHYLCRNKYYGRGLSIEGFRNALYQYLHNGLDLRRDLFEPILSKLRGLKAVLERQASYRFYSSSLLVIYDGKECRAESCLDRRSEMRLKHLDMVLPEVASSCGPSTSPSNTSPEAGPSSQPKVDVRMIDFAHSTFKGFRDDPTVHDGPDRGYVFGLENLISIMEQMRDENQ
test-description: IP6K1 high-throughput screen of the Sigma LOPAC (ADP-Glo Max, single point);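 further: final compound concentration 10µM in 5% DMSO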
Type: biochemical
condition-details: LOPAC single-point screen, ADP-Glo Max raw signal per well
Give the figure by itself; no unit, no explanation.

Br.NCc1cc(O)no1 [Muscimol hydrobromide]; 54732
CC[C@H](NC(=O)c1c(C)c(-c2ccccc2)nc2ccccc12)c1ccccc1; 57369
O=c1onc2n1-c1cc(Br)ccc1OC2; 54790
Br.CCCN(CCC)C1CCc2cccc(O)c2C1 (racemic) [(±)-8-Hydroxy-DPAT hydrobromide]; 55597
O=[N+]([O-])c1cc(O)c(O)c([N+](=O)[O-])c1; 56696

Query string: Reported Raw Signal, molecule `NCCS(=O)O` : ____
Result string: 53524

Query string: Reported Raw Signal, molecule CCC(NC(C)C)C(O)c1ccc(O)c(O)c1.CS(=O)(=O)O (centres unmarked) [Isotharine mesylate] : ____
Result string: 54100

Query string: Reported Raw Signal, molecule Br.NC1CCc2cc(O)c(O)cc2C1 (centres unmarked) [6,7-ADTN hydrobromide] : ____
Result string: 55279

Query string: Reported Raw Signal, molecule `CC1=C(C(=O)O)N2C(=O)[C@@H](NC(=O)[C@H](N)C3=CCC=CC3)[C@H]2SC1` : ____
Result string: 56353

Query string: Reported Raw Signal, molecule `Cc1nc(N=Nc2ccc(S(=O)(=O)O)cc2S(=O)(=O)O)c(COP(=O)(O)O)c(C=O)c1O` : ____
Result string: 55598

Query string: Reported Raw Signal, molecule N=C(N)N/N=C/c1c(Cl)cccc1Cl [Guanabenz acetate] : ____
Result string: 54722

Query string: Reported Raw Signal, molecule CC(C)NCC(O)c1cc(O)cc(O)c1.CC(C)NCC(O)c1cc(O)cc(O)c1.O=S(=O)(O)O (centres unmarked) [Metaproterenol hemisulfate] : ____
Result string: 55094

Query string: Reported Raw Signal, molecule CC(C)(C)NC[C@H](O)COc1nsnc1N1CCOCC1.O=C(O)/C=C\C(=O)O [S(-)-Timolol maleate] : ____
Result string: 57221
